# systemUnderTest: Beta-3 adrenergic receptor (Homo sapiens)
# Sequence (P13945 whole entry): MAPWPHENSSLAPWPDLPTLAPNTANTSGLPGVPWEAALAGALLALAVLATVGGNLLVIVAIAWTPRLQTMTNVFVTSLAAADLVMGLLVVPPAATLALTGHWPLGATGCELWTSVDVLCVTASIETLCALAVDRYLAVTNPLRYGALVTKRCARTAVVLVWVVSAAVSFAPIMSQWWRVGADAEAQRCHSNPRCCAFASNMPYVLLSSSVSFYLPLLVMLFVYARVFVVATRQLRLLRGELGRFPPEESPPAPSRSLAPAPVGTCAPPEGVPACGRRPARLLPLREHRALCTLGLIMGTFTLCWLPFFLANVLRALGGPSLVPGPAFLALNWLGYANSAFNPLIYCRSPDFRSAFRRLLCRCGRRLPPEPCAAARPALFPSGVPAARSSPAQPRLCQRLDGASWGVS
# assayRemarks: Agonist activity at human cloned beta3 adrenergic receptor expressed in CHO cells assessed as cAMP accumulation
compounds and their reported EC50

Example compounds with recorded EC50:
In [3]: df
Out[3]:
                      structuresmilesstring  measuredproperty  observed
0  O=C(O)c1ccc(-c2ccc3c(c2)C[C@@H](NC[C@H](O)c2ccc(C(F)(F)F)cc2)CC3)cc1              EC50    3.5 nM
1  COc1ccc(Oc2ccc3c(c2)C[C@@H](NC[C@H](O)c2ccc(Cl)cc2)CC3)cc1C(=O)O              EC50    4.7 nM
2  O=C(O)c1ccc(-c2ccc3c(c2)C[C@@H](NC[C@H](O)c2ccc(Cl)nc2)CC3)cc1              EC50   0.85 nM
3  O=C(O)COc1cccc(-c2ccc3c(c2)C[C@@H](NC[C@H](O)c2cccc(Cl)c2)CC3)c1              EC50     10 nM
4  O=C(O)c1ccc(Oc2ccc3c(c2)C[C@@H](NC[C@H](O)c2cccc(Cl)c2)CC3)nc1              EC50   1.47 nM

Could you share what EC50 was measured for O=C(O)c1ccc(-c2ccc3c(c2)C[C@@H](NC[C@H](O)c2ccc(Cl)cc2)CC3)c(F)c1 , tested on Beta-3 adrenergic receptor (Homo sapiens)?
1.4 nM

Try this compound too: O=C(O)COc1ccc2c(c1)C[C@@H](NC[C@H](O)c1cccc(Cl)c1)CC2
39 nM
